Recorded pIC50 by entry
Tested on: drug-sensitive cell lines of Table 2 (EFM-19, MDA-MB-453, T-47D, ZR-75-1, NCI-H441, OVTOKO, NCI-H1838)
test: Cell Line Growth Retardation Assay, sensitive cohort
Type: cell-based, human
experimentalContext: Homo sapiens, […], geometric mean over sensitive cohort; 6 days growth; read-out: AvgSensIC50
Procedure: Cells were seeded at densities of 1,000-5,000 cells per well in 48-well tissue culture plates. After a 24 hours rest period, cells were treated with compound at 10 μM, 2 μM, 0.4 μM, 0.08 μM, 0.016 μM, and 0.0032 μM. […] The cells were grown in the presence of compounds for 6 days and were counted on day 0 and day 6. […] Growth inhibition was calculated as a ratio of cell population doublings in the presence of compound versus the absence of compound. […]
Field pIC50 (float): negative decimal logarithm of the concentration in molar.

// worked examples, pIC50 included
| smilesRepr | pIC50 |
| --- | --- |
| Cc1nc2c(F)cc(-c3nc(Nc4ccc(CN5CCO[C@](C)(CCO)C5)cn4)ncc3F)cc2n1C(C)C | 6.82 |
| CNCC[C@@]1(C)CN(Cc2ccc(Nc3ncc(F)c(-c4cc(F)c5nc(C)n(C(C)C)c5c4)n3)nc2)CCO1 | 7.10 |

Recorded pIC50 (compound `Cc1nc2c(F)cc(-c3nc(Nc4ccc(CN5CCO[C@](C)(CCN(C)C)C5)cn4)ncc3F)cc2n1C(C)C` ): 7.00
